System: Urokinase-type plasminogen activator (Homo sapiens) | Read-out: pKi
Note on pKi: it is the negative log10 of concentration, concentration in mol/L.

For record `CC(C)c1cc(C(C)C)c(S(=O)(=O)N[C@@H](Cc2cccc(C(=N)N)c2)C(=O)N2CCN(C(=N)N)CC2)c(C(C)C)c1` the listed pKi is 5.80

For record `CC(C)c1cc(C(C)C)c(S(=O)(=O)N[C@@H](Cc2cccc(C(=N)N)c2)C(=O)N2CCN(C(=O)C3CCNCC3)CC2)c(C(C)C)c1` the listed pKi is 5.92

For record `N=C(N)NCCC1CCN(C(=O)[C@H](Cc2cccc(C(=N)N)c2)NS(=O)(=O)c2ccc3ccccc3c2)CC1` the listed pKi is 5.89

For record `N=C(N)c1cccc(C[C@H](NS(=O)(=O)c2ccc3ccccc3c2)C(=O)N2CCC(C3CCN(C(=N)N)CC3)CC2)c1` the listed pKi is 5.89

For record CC(C)c1cc(C(C)C)c(S(=O)(=O)NC(Cc2cccc(C(=N)N)c2)C(=O)N2CCN(C(=O)CN=C(N)N)CC2)c(C(C)C)c1 (racemic) the listed pKi is 5.82

For record `N=C(N)NCCC(=O)N1CCN(C(=O)[C@H](Cc2cccc(C(=N)N)c2)NS(=O)(=O)c2ccc(C3CCCCC3)cc2)CC1` the listed pKi is 4.98

For record `N=C(N)c1cccc(C[C@H](NS(=O)(=O)c2ccc(NC(=O)CCN)cc2)C(=O)N2CCC(CCN)CC2)c1` the listed pKi is 6.09

For record `N=C(N)NCCC(=O)N1CCN(C(=O)[C@H](Cc2cccc(C(=N)N)c2)NS(=O)(=O)c2ccc(-c3ccccc3)cc2)CC1` the listed pKi is 5.40

For record `N=C(N)c1cccc(C[C@H](NS(=O)(=O)c2ccc(Cc3ccncc3)cc2)C(=O)N2CCC(CCN=C(N)N)CC2)c1` the listed pKi is 5.44

For record `CCC(C)(C)c1ccc(S(=O)(=O)N[C@@H](Cc2cccc(C(=N)N)c2)C(=O)N2CCN(C(=O)CCN=C(N)N)CC2)cc1` the listed pKi is 4.74

For record `CC(C)c1cc(C(C)C)c(S(=O)(=O)N[C@@H](Cc2cccc(C(=N)N)c2)C(=O)N2CCN(C(=O)CCCN)CC2)c(C(C)C)c1` the listed pKi is 5.96

For record `N=C(N)c1cccc(C[C@H](NS(=O)(=O)c2ccc3ccccc3c2)C(=O)N2CCC(C3CCNCC3)CC2)c1` the listed pKi is 5.66

For record `CCC(=O)N1CCN(C(=O)[C@H](Cc2cccc(C(=N)N)c2)NS(=O)(=O)c2ccc3c(c2)C(=O)c2ccccc2C3=O)CC1` the listed pKi is 4.51

For record `N=C(N)c1cccc(C[C@H](NS(=O)(=O)c2ccc3ccccc3c2)C(=O)N2CCC(CCCN)CC2)c1` the listed pKi is 5.68

For record `CC(C)c1cc(C(C)C)c(S(=O)(=O)N[C@@H](Cc2cccc(C(=N)N)c2)C(=O)N2CCCN(C(=O)C3CCNCC3)CC2)c(C(C)C)c1` the listed pKi is 5.60

For record `CC(C)c1cc(C(C)C)c(S(=O)(=O)N[C@@H](Cc2cccc(C(=N)N)c2)C(=O)N2CCN(C(=O)CCN=C(N)N)CC2)c(C(C)C)c1` the listed pKi is 6.09

For record `CC(C)c1cc(C(C)C)c(S(=O)(=O)N[C@@H](Cc2cccc(C(=N)N)c2)C(=O)N2CCCN(C(=O)C3CCN(C(=N)N)CC3)CC2)c(C(C)C)c1` the listed pKi is 5.34

For record `N=C(N)NCCC(=O)N1CCN(C(=O)[C@H](Cc2cccc(C(=N)N)c2)NS(=O)(=O)Cc2ccc3ccccc3c2)CC1` the listed pKi is 4.37

For record `N=C(N)NCCCC1CCN(C(=O)[C@H](Cc2cccc(C(=N)N)c2)NS(=O)(=O)c2ccc3ccccc3c2)CC1` the listed pKi is 5.68

For record `N=C(N)c1cccc(C[C@H](NS(=O)(=O)c2cccc(NC(=O)CCCN)c2)C(=O)N2CCC(CCN)CC2)c1` the listed pKi is 5.10

For record `N=C(N)c1cccc(C[C@H](NS(=O)(=O)c2ccc(-c3ccccc3)cc2)C(=O)N2CCN(C(=O)C3CCN(C(=N)N)CC3)CC2)c1` the listed pKi is 4.92

For record `N=C(N)c1cccc(C[C@H](NS(=O)(=O)c2cccc(NC(=O)CCN)c2)C(=O)N2CCC(CCCN)CC2)c1` the listed pKi is 5.82

For record `N=C(N)c1cccc(C[C@H](NS(=O)(=O)c2cccc(NC(=O)CCN)c2)C(=O)N2CCC(CCN)CC2)c1` the listed pKi is 5.44

For record `N=C(N)c1cccc(C[C@H](NS(=O)(=O)c2cccc3ccccc23)C(=O)N2CCC(CCN=C(N)N)CC2)c1` the listed pKi is 5.64

For record `N=C(N)c1cccc(C[C@H](NS(=O)(=O)c2cccc(NC(=O)CN)c2)C(=O)N2CCC(CCN)CC2)c1` the listed pKi is 4.96

For record `N=C(N)NCCNC(=O)C1CCN(C(=O)[C@H](Cc2cccc(C(=N)N)c2)NS(=O)(=O)c2ccc3c(c2)C(=O)c2ccccc2C3=O)CC1` the listed pKi is 5.44

For record `N=C(N)NCCC(=O)Nc1ccc(S(=O)(=O)N[C@@H](Cc2cccc(C(=N)N)c2)C(=O)N2CCC(CCNC(=N)N)CC2)cc1` the listed pKi is 6.22

For record `CC(C)c1cc(C(C)C)c(S(=O)(=O)N[C@@H](Cc2cccc(C(=N)N)c2)C(=O)N2CCCN(C(=O)CCN)CC2)c(C(C)C)c1` the listed pKi is 5.92

For record CC(C)c1cc(C(C)C)c(S(=O)(=O)NC(Cc2cccc(C(=N)N)c2)C(=O)N2CCN(C(=O)CN)CC2)c(C(C)C)c1 (racemic) the listed pKi is 5.05
